- Test system: Bacillus cereus ATCC 11778
- Format: cell-based
- CONDITIONS USED: ATCC 11778, 24 h
Where no end group is shown, it is not given here.
In this section, each of the substances is paired with its reported MIC.

Fill in the blank: the reported MIC of WVKKVARKVVKIGRKVAR-NH2 [A11] is ____.
250 (250) µg/ml

====

- Test system: Salmonella Typhimurium ATCC 13311
- Format: cell-based, Salmonella enterica serovar Typhimurium
- CONDITIONS USED: ATCC 13311, 18 h
Where no end group is shown, it is not given here.
READOUT LABEL: MBC

Fill in the blank: the reported MBC of GVKKVAHKVVKIGRKVAW-NH2 [A6] is ____.
62.5 (62.5) µg/ml
